Target: Induced myeloid leukemia cell differentiation protein Mcl-1 (Homo sapiens) (UniProt Q07820)
Sequence (Q07820 whole entry, looked up): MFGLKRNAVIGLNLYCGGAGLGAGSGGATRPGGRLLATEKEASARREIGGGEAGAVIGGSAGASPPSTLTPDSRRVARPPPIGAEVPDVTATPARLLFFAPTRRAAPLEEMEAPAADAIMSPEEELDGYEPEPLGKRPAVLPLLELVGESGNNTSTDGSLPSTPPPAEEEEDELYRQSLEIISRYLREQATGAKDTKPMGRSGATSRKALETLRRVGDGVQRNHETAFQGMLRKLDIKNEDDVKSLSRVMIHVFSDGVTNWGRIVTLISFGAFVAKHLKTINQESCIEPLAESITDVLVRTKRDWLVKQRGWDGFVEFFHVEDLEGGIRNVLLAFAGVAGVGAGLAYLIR
Assay: modulators of Bim peptide binding to Mcl-1, dose response, biochemical, bead-based flow cytometry, multiplexed, human (AID 1329)
Settings: Bim peptide-Mcl-1 binding, MCF
Calls of active or inactive are those of the source. How the calls were made is not given here.
measure: percent span

Please review the following examples before continuing.
[[record]]
compound_string = "COCCn1nnnc1CN(Cc1ccco1)Cc1cc2cc3c(cc2[nH]c1=O)OCO3"
value_measured = "inactive"

[[record]]
compound_string = "CCOC(=O)c1cc2c(=O)n3ccccc3nc2n(Cc2ccco2)c1=NC(=O)c1ccccc1OC"
value_measured = "inactive"

[[record]]
compound_string = "O=C(O)c1cccc(NC2=C(Cl)C(=O)c3ccccc3C2=O)c1"
value_measured = "inactive"

[[record]]
compound_string = "CC(=O)OCCNc1cc(Sc2nc3ccccc3[nH]2)c2nonc2c1[N+](=O)[O-]"
value_measured = "inactive"

[[record]]
compound_string = "CC1(C)CC(=O)C(C=NCCN2CCN(CCc3ccccc3)CC2)=C(O)C1"
value_measured = "inactive"

[[record]]
compound_string = "CCc1cccc(CC)c1-n1c(-c2cccnc2)n[nH]c1=S"
value_measured = "inactive"

[[record]]
compound_string = "CCC(CC)C(=O)Nc1cccc(S(=O)(=O)c2cccc(NC(=O)C(CC)CC)c2)c1"
value_measured = "inactive"

[[record]]
compound_string = "Cc1ccc(NC2=C(Cl)C(=O)c3ccccc3C2=O)cc1"
value_measured = "inactive"

[[record]]
compound_string = "CC(C)NS(=O)(=O)c1ccc(OCC(=O)Nc2ccc(F)cc2)cc1"
value_measured = "inactive"


Task: Entry under review: `Cc1cc(C)c2nc3nc(C)c(C)cc3c(N)c2c1` . Reported percent span?
Output: inactive
